- MEASUREMENT PROTOCOL: yeast display, Sf9 membrane polyspecificity reagent, FACS + sequencing; frameworks hold sequencing errors
METRIC: polyreactivity (PSR sort gate)

In the examples that follow, each entry is paired with its recorded polyreactivity (PSR sort gate).
QVQLVESGGGLDQAGGSLRLSCAASGSTFYAYAMGWYRQAPGKERELVAANSSDGTNYADSVKGRFTLSRDNAKNTVYLQMNSLKPEDTAVYYCAKDSVWGAKNLTSYKYYYWGQGTQVTVSS    low polyreactivity
QVQLVESGGGLVQAGGSLRLRCAASGRTFKRKAMGWYRQAPGKEREFVAVITGSGGSTYYADSVKGRFTISRDNAKNTVYLQMNSLKPEDTAVYYCAAALGLRSTSWGRRGGGGVYWGQGTQVTVSS    high polyreactivity
QVQLVESGGCLVQAGGSLRLSCAASGLTFGSNAMGWYRQAPGKERELVAAISSTGSTYYADSVKGRFTISRDNAKNTVYLQMNSLKPEDTAVYYCAAYDYWGQGTQVTVSS    low polyreactivity
QVQLVESGGGLVQAGGSLRLSCAASGSTTHYYAMGWYRQAPGKEWELVASITWSVGSTYYADSVKGRFTISRDNAKNTVYLQMNSLKPEVTAVYYCAGRPFPRRYDYWGQGTQVTVSS    low polyreactivity

Please examine the following record next.
Q) Suppose we examine the sequence QVQLVESGGGLVQAGGSLRLSCAASGRTFWRYAMGWYRQAPGKERELVARISSGGSTYYADSVKGRFTISRDNAKNTVYLQMNSLKPEDTAVYYCAVLSRHRRVPWYRYNYWGQGTQVTVSS ; what polyreactivity (PSR sort gate) value has been reported?
A) low polyreactivity

---

- MEASUREMENT PROTOCOL: yeast display, Sf9 membrane polyspecificity reagent, FACS + sequencing; frameworks hold sequencing errors
METRIC: polyreactivity (PSR sort gate)

In the examples that follow, each entry is paired with its recorded polyreactivity (PSR sort gate).
QVQLVESGGGLVQAGGSLRLSCAASGRIFWRYAMGWYRQAPGKERELVAGITYSGGRTYYADSVKGRFTISRDNAKNTVYLQMNSLTPEDTAVYYCAARGYFDALFDYWGQGTQVTVSS    low polyreactivity
QVQLVESGGGLVQAGGSLRLSCAASGSILDIYAMGWSRQAPGKERELVAGISTSGGSTYYADSVKGRFTISRDNAKNTVYLQMNSLKPEDTAVYYCAKDYGYQGHTRTLYWAYLEYDYWGQGTQVTVSS    low polyreactivity
EVQLVESGGGLVQAGGSLRLSCAASGFTFSYNAMGWYRQAPGKERELVAAIDWGGGSTYADSVKGRFTISRDNAKNTVYLQMNSLKPEDTAVYYCAAYIPSSGRNPEIGVEYDYWGQGTQVTVSS    low polyreactivity
QVQLVESGGGLVQAGGSLRLSCAASGRTILGNAMGWYRQAPGKEREFVATISKTGGSTYYADSVKGRFTISRDNAKNTVYLQMISLKPEDTAVYYCAVEIVSYVYGWLVDYDYWGQGTQVTVSS    low polyreactivity

Q) Suppose we examine the sequence QVQHVESGGGLVQAGGSLRLSCAASGRTFISNAMGWYRQAPGKERELVATINSGGSTNYADSVKGRFTISRDNAKNTVYLQMNSLKPEDTAVYYCARRVRYKHYDYWGQGTQLTVSS ; what polyreactivity (PSR sort gate) value has been reported?
A) high polyreactivity

Q) Field entry: QVQLVESGGGLVQAGGSLRLSCAASGRTFVYNAMGWYRQAPGKERELVAAISSGGGTNYADSVKGRFTISRDNAKNTVYLQMNSLKPEDTAVYYCAAGFDGSRHPGFDSWVQGTQVTVSS
A) low polyreactivity

Q) Field entry: QVHLVESGGGLVQAGGSLRLSCAASGFNLLPYALGWYRQAQGKERELVATINSGDSTYADSVKGRFTISRDNAKNTVYLQMNSLKPEDTAVYYCNAYWLVVPVDLDYWGQGTQVTVSS
A) low polyreactivity

Q) Field entry: QVQLVESGGGLVQAGGSLRLSCAASGRTIWYYAKGWYRQAPGKERELVAAITRGGRTNYADSVKGRFTISRDNAKNTVDLQMNSLKPEDTAVYYCAADYRDPAHSYGYWGQGTQVTVSS
A) high polyreactivity

Q) Field entry: QVQLVESGGGLVQAGGSLRLSCAASGSIFPPYTMGWYRQAPGKERELVAAISWGGGSTYYADSVKGRFTISRDNAKNTVYLQMNSLKPEDTAVYYCAAGRYYRGYYWGQGTQVTVSS
A) high polyreactivity

Q) Field entry: QVQLVESGGGLVQAGGSLRLSCAASGSTFWPYAMGWYRQAPGKERELVAAITSSDVNTNYADSVKGRFTISRDNAKNTVYLQMNSLKPEDTAVYYCAADQYQYDPTYGYDYWGQGTQVTVSS
A) low polyreactivity

Q) Field entry: QVHLVESGGCLVQAGGSLRLSSAASASIFYYNTMGWYIQAPGKERELVATNSSDGGTNYADSVKGRFTISRDNAKNTVYLQMNSLKPEDTAVYYCAAAVSPYSYWPGFDYWGQGTQVTVSS
A) low polyreactivity

---

- MEASUREMENT PROTOCOL: yeast display, Sf9 membrane polyspecificity reagent, FACS + sequencing; frameworks hold sequencing errors
METRIC: polyreactivity (PSR sort gate)

In the examples that follow, each entry is paired with its recorded polyreactivity (PSR sort gate).
QVQLVESGGGLVQAGGSLRLSGAASGRNFSTNAMGWYRPAPGKERELVAAITSGGNTYADSVKGRFTISRDNAKNTVYLQMNSLKPEDTAVYYCAARLYWGRYNYWGQGTQVTVSS    high polyreactivity
QVQLVESGGGLVQAGGSLRLSCAGSGRIFVSYAMGWYRQAPGKERELVAAITRSGGSTYYADSVKGRFTISRDNAKNTVYLQMNSLKPEDTAVYYCNAYIPRTRYRSGYWGQGTQVTVSS    high polyreactivity
QVQLVESGGGLVQAGGSLRLSCAASGSTFPLYAMGWYRQAPGKERELVAAITGGGGRTYYADSVKGRFTISRDNAKNTVYLQMNSLKPEETAVYYCAASKQRYYRWWTTPGYDYWGQGTQVTVSS    low polyreactivity
QVQLVESGGGLVQAVGSLRLSCAASGRILYWYAMGWYRQAPGKERELVAAINHGDTSTYYADSVKGRFTISRDNAKNTVYLQMNSLIPEDTAVYYCNVRSYVYSRWYQSTWGYYYWGQGTQVTVSS    high polyreactivity
QVQLVESGGGLVQAGRSLRLSCAASGRIFCYYAMGWYRQAPGKERELVAAITRGGSTYYADSVKGRFTISRDNAKNTVYLQMNSLKPEDTAVYYCAATISGLVKYENDYWGQGTQVTVSS    low polyreactivity
QVQLVESAGGLVQAGVSLRLSCAASGRTFYWYTMGWYRQAPGKERELVAAISSAGSTYYADSVKGRFTISRDNAKNTVYLQMNSLKPEDTAVYSCAAGSHSGRAYYYWGQGTQVTVSS    high polyreactivity
QVQLVESGAGLVQEGGSLRLSCAASGSIFQAYAMGWYRKAPGKERELVANISSGGSTNYADSVKGRFTISRDNAKNTVYLQMNSLKPEDTAVYYCAASRWIFVLTYEYDYWNRRDYWGQGTQVTVSS    low polyreactivity
QVQLVESGGGLVQAGGSLRLSCAASGRTVWSNAMGWYRQAPGKEREFVASISRTGVNTYYADSVKGRFTISRDYAKNSVYLQMNSLKPEDTAVYYCNVYSARRGVGTLARYSEYDYWGQGTQVTVSS    high polyreactivity
QVQLVESGGGLVQAGGSLRLSCAASGRTFKKYAMGWYRQAPGKERELVAAITGSGGSTYYADSVKGRFTISRDNAKNTVYLQMNSLKPEDTAVYYCAAEVVAQMNYWGQGTQVTVSS    low polyreactivity
QVQLVESGGGLVQAGGSLRLSCAASGSIFYNAMGWYRQAPGKERELVASISWSGGTSTYYADSVKGRFTISRDNAKNTVYLQMNSLKPEDTAVYYCAKASRYSSYWMYYWGQGTQVTVSS    high polyreactivity

Q) Suppose we examine the sequence QVQLVESGGGLVQAGGSLRLTCAASGSISFGYAMGWYRQAPGKERELVAAITWSTARTYYADSVKGRFTISRDNAKNTVYLQMNSLKPEDTAVYYCAKGGYWGQGTQVTVSS ; what polyreactivity (PSR sort gate) value has been reported?
A) high polyreactivity

Q) Field entry: QVQLVESGGGLDQAGGSLRLSCAASGFIFGRYTMVWYRPAPGKEMELVAAISRGGITNYADSEKGRFTISRDNAKNTVYLQMNSLKPEDTAVYYCATTRDYWRGRSYYYWGQGTQVTVSS
A) high polyreactivity

Q) Field entry: QVQLVESGGGLVQAGGSLRLSCAASGRIFRYYAMGWYRQAPGKEREFVAGISWRGSSTYYADSVKGRFTISRDNAKNTVYLQMNSLKPEDTAVYYCNRDQSNIPVTGGRFYYWGQGTQVTVSS
A) high polyreactivity

Q) Field entry: QVQIVESGGGLVQAGGSLRLSCGASGSTLGWYGMGWYRQAPGKERELVATISESGGSTYYADSVKGRFTISRDNAKNTVYLQMNSLKPEDTAVYYCAADDRGLISRRGYFYLSYDYWGQGTQVTVSS
A) low polyreactivity

Q) Field entry: QDQHVESGGGLVQAGGSLRLSCAASGSIFVTNAMGWCRQARGKERELVAAISVSGGSTYYADSVKGRFTISRDNAKHTVYLQMTSLKPEDTAVYYCNTVRSPPGHDSWGQGTQVTVSS
A) low polyreactivity

Q) Field entry: QVQLVESGGGLVQAGGSLRLSCAASGFTFVRYAMGWYRQAPGKERELVAAISSSGSSTYYADSVKGRFTISRDPVKNTVYLQMNSLIPEDTAVYYFNARAGGGEDYWGQGTQVTVSS
A) low polyreactivity

Q) Field entry: QVQLVESGGGLVQAGGSLRLSCAASGSIFVGNAMGWYRQAPGKERELVAAISWSGGSTYYADSVKGRFTISRDNAKNTVYLQMNSLKPEDTAVYYCATQLSIRMDYWGQGTQVTVSS
A) high polyreactivity

Q) Field entry: QVQLVESAGGLVQAGGSLRLSCAASGNTFYPYAMGWYRQAPGKERELVAAITSVGRTYYADSVKGRFTITRDNAKNTVYLQMNSLKPEDTAVYYCAAVVYYRGYTYNYWGQGTQVTVSS
A) high polyreactivity

Q) Field entry: QVQLVESGGGLVQAGGSLRISCAASGRTFWKYVMGWYRQAPGKEMELVAVISRPAGSTYYADSVKGRFTISRDNAKNTVYLQRNSLKPEDTAVYYCDKRPKNKPVLGDYDHWGQGTQVTVSS
A) low polyreactivity

Q) Field entry: QVQLQESGGGLVQAGGSLRLSCAASGNIYDADIMGWYRQAPGKERELVTSITDGGSTNYADSVKGRFTISRDNAKNTVYLQMNSLKPEDTAVYYCAAIAYPDIPTSFDYNTDYSYWGQGTQVTVSS
A) low polyreactivity

Q) Field entry: QVPLVESGGGLVQAGGSLRLSCAASGRTFVGYAMGWSSQAPGKDRELVARITGRSGSTYYADSVKGRFTISRDNAKNTVYLQMNSLKTEDTAVYDCAKRITYYYPGYDDWGQGTQVTVAS
A) low polyreactivity

Hello, the source for this data is the nanobody polyreactivity screen of Harvey et al. (2022), in case you need it.
